# measured.target: Signal transducer and activator of transcription 3 (Homo sapiens)
# experiment.summary: ATG_STAT3_CIS: Attagene CIS-FACTORIAL HepG2 Assay for human Signal Transducer and Activator of Transcription 3 (STAT3) (AID 2282963)
# condition.set: HepG2, Attagene cis-factorial STAT3 reporter transcription; actives raise or lower the signal
The source made the active and inactive calls. How the source made its calls: active means hit-call score of the fitted dose curve at least 0.9, where 1 is the maximum; inactive means score below 0.9.
Please state which outcome applies, choosing from active, inactive

Solved cases below.
compound	measured.target	class
c1ccc2c(c1)CCCC2	Signal transducer and activator of transcription 3 (Homo sapiens)	inactive
CC(C)[C@@H](C(=O)O[C@@H](C#N)c1cccc(Oc2ccccc2)c1)c1ccc(Cl)cc1	Signal transducer and activator of transcription 3 (Homo sapiens)	inactive
C[N+](C)(C)CC(=O)[O-]	Signal transducer and activator of transcription 3 (Homo sapiens)	inactive

Ask | Hi, sorry to bother you, what did the test record for `CC1CCCC1.[C-]#[O+].[C-]#[O+].[C-]#[O+].[Mn]` ?
Reply | inactive
